The reported numbers originate from patent US9540325B2.

Test system: AMPKα
Assay: Measurement of AMPK activation effect (AMPKα Thr172 phosphorylation immunoassay) in MCF7 cells
Type: cell-based, human
Details: 50 μM, 24 hours, relative to untreated cells
Where a name gives a salt, the structure may show the parent alone.
readout: AMPK activation effect at 50 μM (%)

A selection of reference data follows.
[
  {
    "compound": "Cl.N=C(NC(=N)N1CCCC1)Nc1ccc(C(F)(F)F)cc1",
    "assayed.target": "AMPKα",
    "readout": "AMPK activation effect at 50 μM (%)",
    "reported.result": "642%"
  },
  {
    "compound": "Cl.N=C(NC(=N)N1CCCCCC1)Nc1cccc(Cl)c1",
    "assayed.target": "AMPKα",
    "readout": "AMPK activation effect at 50 μM (%)",
    "reported.result": "653%"
  },
  {
    "compound": "Cl.N=C(NC(=N)N1CCOCC1)Nc1cccc(Br)c1",
    "assayed.target": "AMPKα",
    "readout": "AMPK activation effect at 50 μM (%)",
    "reported.result": "119%"
  },
  {
    "compound": "Cl.N=C(NC(=N)N1CCCC1)Nc1cccc(Cl)c1",
    "assayed.target": "AMPKα",
    "readout": "AMPK activation effect at 50 μM (%)",
    "reported.result": "586%"
  },
  {
    "compound": "Cl.N=C(NC(=N)N1CCC1)Nc1ccc(OC(F)(F)F)cc1",
    "assayed.target": "AMPKα",
    "readout": "AMPK activation effect at 50 μM (%)",
    "reported.result": "232%"
  }
]

Hi, could you look up AMPK activation effect at 50 μM (%) for each item in my list?
1. Cl.N=C(NC(=N)N1CCCC1)Nc1cccc(OC(F)(F)F)c1
2. CN(C)C(=N)N=C(N)N [Metformin hydrochloride, reference compound]

["424%", "130.0%"]

Hi, could you look up AMPK activation effect at 50 μM (%) for each item in my list?
1. Cl.N=C(NC(=N)N1CCOCC1)Nc1ccc(OC(F)(F)F)cc1
2. Cl.N=C(NC(=N)N1CCCCC1)Nc1ccc(S(N)(=O)=O)cc1
3. CN(C)c1ccc(NC(=N)NC(=N)N2CCCCC2)cc1.Cl
4. Cc1cccc(NC(=N)NC(=N)N2CCCCC2)c1.Cl
5. CCc1cccc(NC(=N)NC(=N)N2CCCCC2)c1.Cl
6. Cl.N=C(NC(=N)N1CCCCC1)Nc1ccc(F)cc1
7. CN1CCN(C(=N)NC(=N)Nc2ccc(OC(F)(F)F)cc2)CC1.Cl
8. Cl.N=C(NC(=N)N1CCC1)Nc1ccc(OC(F)(F)F)c(F)c1

168%
114%
286%
255%
598%
429%
542%
740%

Hi, could you look up AMPK activation effect at 50 μM (%) for each item in my list?
1. Cl.N=C(NC(=N)N1CCCCC1)Nc1ccc(-c2nnn[nH]2)cc1
2. COc1cccc(NC(=N)NC(=N)N2CCCCC2)c1.Cl
3. Cl.N=C(NC(=N)N1CCCC1)Nc1ccc(OC(F)(F)F)cc1
4. Cl.N=C(NC(=N)N1CCCCC1)Nc1cccc(O)c1
5. Cl.N=C(NC(=N)N1CCCCC1)Nc1ccccc1F
6. CSc1ccc(NC(=N)NC(=N)N2CCCCC2)cc1.Cl

1. 55%
2. 300%
3. 680%
4. 127%
5. 100%
6. 547%
